molecular target: human NPP1 (Homo sapiens, UniProt P22413); construct: Human recombinant soluble NPP1 (Val191—Leu591) expressed in murine myeloma NS0 cells; His-tag (N); purchased R&D Systems GmbH (Wiesbaden, Germany); host or cells: murine myeloma NS0 cells; experiment: NPP1 inhibition vs. new artificial substrate p-Nph-5′-AMP (p-nitrophenolate at 400 nm); type: biochemical; settings: substrate p-Nph-5′-AMP; mean ± SD of three independent experiments; read-out: Ki ± SD, p-Nph-5′-AMP
# reported Ki; entries follow
Your answer should be a plain number; it is taken to be in µM.

Record excerpt, results attached:
>  <molecule>
CSc1nc(N)c2ncn([C@@H]3O[C@H](COP(=O)(O)OP(=O)(O)OP(=O)(O)O)[C@@H](O)[C@H]3O)c2n1 [2-MeSATP, 2-methylthio-adenosine 5′-triphosphate]

>  <measurement unit>
µM

>  <quantitative result>
39.9

$$$$
>  <molecule>
COc1ccc(NC(=O)CSc2nc3c(N)ncnc3[nH]2)cc1OC [PZB08513136A]

>  <measurement unit>
µM

>  <quantitative result>
14.9

$$$$

Given "Nc1ncnc2c1ncn2[C@@H](C=O)O[C@@H](C=O)COP(=O)(O)OP(=O)(O)O" , state its recorded Ki.
5.09

Given CSc1nc(N)c2ncn([C@@H]3O[C@H](COP(=O)(O)OP(=O)(O)O)[C@@H](O)[C@H]3O)c2n1 [2-MeSADP, 2-methylthio-adenosine 5′-diphosphate] , state its recorded Ki.
35.4

====

biological target: human NPP1 (Homo sapiens, UniProt P22413); construct: Human recombinant soluble NPP1 (Val191—Leu591) expressed in murine myeloma NS0 cells; His-tag (N); purchased R&D Systems GmbH (Wiesbaden, Germany); host or cells: murine myeloma NS0 cells; test: Inhibition constants and mechanism of inhibition (Hanes-Woolf plots) compared across all investigated substrates; type: biochemical; conditions: Hanes-Woolf plots; same type vs. all three substrates (ATP, p-Nph-5′-TMP, p-Nph-5′-AMP)
measured metric: Inhibition type

Record excerpt, results attached:
>  <molecule>
COc1cc2ncnc(N3CCC(CCNS(N)(=O)=O)CC3)c2cc1OC

>  <target under test>
human NPP1 (Homo sapiens, UniProt P22413)

>  <result>
Competitive

$$$$
>  <molecule>
COc1ccc(NC(=O)CSc2nc3c(N)ncnc3[nH]2)cc1OC [PZB08513136A]

>  <target under test>
human NPP1 (Homo sapiens, UniProt P22413)

>  <result>
Competitive

$$$$
>  <molecule>
CSc1nc(N)c2ncn([C@@H]3O[C@H](COP(=O)(O)OP(=O)(O)OP(=O)(O)O)[C@@H](O)[C@H]3O)c2n1 [2-MeSATP, 2-methylthio-adenosine 5′-triphosphate]

>  <target under test>
human NPP1 (Homo sapiens, UniProt P22413)

>  <result>
Competitive

$$$$
>  <molecule>
CSc1nc(N)c2ncn([C@@H]3O[C@H](COP(=O)(O)OP(=O)(O)O)[C@@H](O)[C@H]3O)c2n1 [2-MeSADP, 2-methylthio-adenosine 5′-diphosphate]

>  <target under test>
human NPP1 (Homo sapiens, UniProt P22413)

>  <result>
Competitive

$$$$
>  <molecule>
Nc1ncnc2c1ncn2[C@@H](C=O)O[C@@H](C=O)COP(=O)(O)OP(=O)(O)O

>  <target under test>
human NPP1 (Homo sapiens, UniProt P22413)

>  <result>
Non-competitive

$$$$

Given Nc1ncnc2c1ncn2[C@@H]1O[C@H](COP(=O)(O)CP(=O)(O)OP(=O)(O)O)[C@@H](O)[C@H]1O [α,β-metATP, adenosine 5′-(α,β-methylene)triphosphate] , state its recorded Inhibition type.
Competitive

Given "Nc1c(S(=O)(=O)O)cc(Nc2ccc(Nc3nc(Cl)nc(Nc4cccc(S(=O)(=O)O)c4)n3)c(S(=O)(=O)O)c2)c2c1C(=O)c1ccccc1C2=O" , state its recorded Inhibition type.
Non-competitive

Given Nc1ncnc2c1ncn2[C@@H]1O[C@H](COP(=O)(O)CP(=O)(O)O)[C@@H](O)[C@H]1O [α,β-metADP, adenosine 5′-(α,β-methylene)diphosphate] , state its recorded Inhibition type.
Competitive

====

Molecular target: human NPP1 (Homo sapiens)
Construct: Human recombinant soluble NPP1 (Val191—Leu591) expressed in murine myeloma NS0 cells; His-tag (N); purchased R&D Systems GmbH (Wiesbaden, Germany); host or cells: murine myeloma NS0 cells
Sequence (P22413 191-591): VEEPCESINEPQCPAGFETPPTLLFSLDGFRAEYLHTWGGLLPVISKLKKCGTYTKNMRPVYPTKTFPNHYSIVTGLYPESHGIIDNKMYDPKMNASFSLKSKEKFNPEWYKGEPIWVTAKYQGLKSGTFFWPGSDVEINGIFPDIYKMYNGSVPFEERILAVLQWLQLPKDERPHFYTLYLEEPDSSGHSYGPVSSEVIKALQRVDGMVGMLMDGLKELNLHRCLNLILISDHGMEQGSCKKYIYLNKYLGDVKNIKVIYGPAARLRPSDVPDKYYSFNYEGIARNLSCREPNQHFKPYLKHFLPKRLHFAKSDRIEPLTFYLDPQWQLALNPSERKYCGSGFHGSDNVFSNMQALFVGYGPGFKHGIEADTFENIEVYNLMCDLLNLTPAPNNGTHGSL
Assay: NPP1 inhibition vs. natural substrate ATP (CE, AMP quantified by UV at 260 nm)
Assay type: biochemical
pKi: −log10 of the molar value.
Rule: pKi under 5 gives not satisfied, otherwise satisfied.

>  <molecule>
Nc1ncnc2c1ncn2[C@@H]1O[C@H](COP(=O)(O)CP(=O)(O)O)[C@@H](O)[C@H]1O [α,β-metADP, adenosine 5′-(α,β-methylene)diphosphate]

>  <target under test>
human NPP1 (Homo sapiens)

>  <assigned label>
not satisfied

$$$$
>  <molecule>
CSc1nc(N)c2ncn([C@@H]3O[C@H](COP(=O)(O)OP(=O)(O)OP(=O)(O)O)[C@@H](O)[C@H]3O)c2n1 [2-MeSATP, 2-methylthio-adenosine 5′-triphosphate]

>  <target under test>
human NPP1 (Homo sapiens)

>  <assigned label>
not satisfied

$$$$
>  <molecule>
Nc1ncnc2c1ncn2[C@@H](C=O)O[C@@H](C=O)COP(=O)(O)OP(=O)(O)O [dialADP]

>  <target under test>
human NPP1 (Homo sapiens)

>  <assigned label>
satisfied

$$$$

Check if pKi >= 5 (inclusive). Item: CSc1nc(N)c2ncn([C@@H]3O[C@H](COP(=O)(O)OP(=O)(O)O)[C@@H](O)[C@H]3O)c2n1 [2-MeSADP, 2-methylthio-adenosine 5′-diphosphate]
not satisfied

Check if pKi >= 5 (inclusive). Item: Nc1c(S(=O)(=O)O)cc(Nc2ccc(Nc3nc(Cl)nc(Nc4cccc(S(=O)(=O)O)c4)n3)c(S(=O)(=O)O)c2)c2c1C(=O)c1ccccc1C2=O [reactive blue 2]
satisfied

====

Biological target: human NPP1 (Homo sapiens, UniProt P22413)
Construct: Human recombinant soluble NPP1 (Val191—Leu591) expressed in murine myeloma NS0 cells; His-tag (N); purchased R&D Systems GmbH (Wiesbaden, Germany); host or cells: murine myeloma NS0 cells
Sequence (P22413 191-591): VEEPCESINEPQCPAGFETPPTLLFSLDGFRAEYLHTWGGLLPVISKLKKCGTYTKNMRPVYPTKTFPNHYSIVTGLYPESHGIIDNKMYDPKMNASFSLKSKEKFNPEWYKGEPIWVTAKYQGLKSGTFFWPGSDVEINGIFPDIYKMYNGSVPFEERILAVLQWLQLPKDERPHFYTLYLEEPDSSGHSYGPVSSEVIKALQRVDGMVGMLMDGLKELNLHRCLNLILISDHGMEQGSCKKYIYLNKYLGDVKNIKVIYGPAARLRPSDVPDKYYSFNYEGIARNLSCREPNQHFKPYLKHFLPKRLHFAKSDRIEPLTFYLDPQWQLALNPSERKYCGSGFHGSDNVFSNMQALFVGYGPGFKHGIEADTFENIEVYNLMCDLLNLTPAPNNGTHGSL
Experiment: Inhibition constants and mechanism of inhibition (Hanes-Woolf plots) compared across all investigated substrates
Type: biochemical
pKi: −log10 of the molar value.
measured metric: pKi

Given Nc1ncnc2c1ncn2[C@@H](C=O)O[C@@H](C=O)COP(=O)(O)OP(=O)(O)O [dialADP] , state its recorded pKi.
~5.30

Given Nc1ncnc2c1ncn2[C@@H](C=O)O[C@@H](C=O)COP(=O)(O)OP(=O)(O)OP(=O)(O)O [dialATP] , state its recorded pKi.
~5.30

====

target: human NPP1 (Homo sapiens); construct: Human recombinant soluble NPP1 (Val191—Leu591) expressed in murine myeloma NS0 cells; His-tag (N); purchased R&D Systems GmbH (Wiesbaden, Germany); host or cells: murine myeloma NS0 cells; experiment: NPP1 inhibition vs. new artificial substrate p-Nph-5′-AMP (p-nitrophenolate at 400 nm); assay type: biochemical
# reported Ki; entries follow
Your answer should be a plain number; it is taken to be in µM.

>  <compound>
Nc1c(S(=O)(=O)O)cc(Nc2ccc(Nc3nc(Cl)nc(Nc4cccc(S(=O)(=O)O)c4)n3)c(S(=O)(=O)O)c2)c2c1C(=O)c1ccccc1C2=O

>  <measured metric>
Ki

>  <quantitative result>
0.176

$$$$

# evaluate next
Given Nc1ncnc2c1ncn2[C@@H]1O[C@H](COP(=O)(O)CP(=O)(O)O)[C@@H](O)[C@H]1O [α,β-metADP, adenosine 5′-(α,β-methylene)diphosphate] , state its recorded Ki.
25.8
